The reported numbers originate from ChEMBL document CHEMBL1201862.

molecular target: Replicative DNA helicase DnaB (Mycobacterium tuberculosis); experiment: DnaB intein splicing inhibitors, dose response, biochemical, cell-free fluorescence (AID 449749); format: functional
Sequence (P9WMR3 1-399, added parts left off): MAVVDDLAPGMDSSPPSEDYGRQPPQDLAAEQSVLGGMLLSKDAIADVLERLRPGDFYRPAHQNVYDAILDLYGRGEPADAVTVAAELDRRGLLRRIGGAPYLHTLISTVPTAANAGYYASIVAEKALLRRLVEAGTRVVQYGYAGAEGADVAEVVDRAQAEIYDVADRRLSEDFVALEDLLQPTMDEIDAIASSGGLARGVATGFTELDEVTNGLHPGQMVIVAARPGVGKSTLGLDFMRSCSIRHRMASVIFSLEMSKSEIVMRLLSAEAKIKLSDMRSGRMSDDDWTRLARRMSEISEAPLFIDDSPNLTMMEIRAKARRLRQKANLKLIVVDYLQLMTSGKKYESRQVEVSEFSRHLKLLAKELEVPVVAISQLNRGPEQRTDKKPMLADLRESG
Calls of active or inactive are those of the source. Cut-off read from the data, not from the text of the source: actives have a measured AC50 and inactives only a lower limit.
Mark one answer only. Choices: active, inactive

Query: GET /call?item= Nc1cc2nn(-c3ccccc3)nc2cc1Cl returns the recorded outcome of this test.
Response: active

Query: Tell me the recorded outcome of this test for CC(C)(C)C1CCc2sc(C(=O)NNC(=O)CCl)cc2C1 (configuration not stated) .
Response: active

Query: Hey, what did the test say about O=C(COC(=O)C1CC(=O)N(Cc2ccco2)C1)c1ccc(OC(=O)c2ccco2)cc1 (configuration not stated) ?
Response: inactive

Query: Could you kindly confirm the outcome this assay logged for Cc1ccc(S(=O)(=O)Oc2ccc(C(c3c(C)n[nH]c3O)c3c(C)n[nH]c3O)cc2)cc1 ?
Response: active

Query: # lookup: test call for O=C1C=C(NCCN2CCOCC2)C(=O)c2cnccc21
Response: active

Query: // outcome(item) with item = N#CC1=C(N)N(c2ccccc2)C(c2cccc([N+](=O)[O-])c2)C1(C#N)C#N (configuration not stated)
Response: active

Query: What did the test return for CCCc1n[nH]c2c1C(c1cc(OC)cc(OC)c1)C(C#N)=C(N)O2 (configuration not stated) ?
Response: active
